Assay: folding stability dG unfold from trypsin proteolysis; higher = more stable
RESULT TYPE: folding stability dG unfold

Sample records with folding stability dG unfold:
ORDERED RESIDUES	folding stability dG unfold
SAGGSAGGSSKTFKDPDGWTITVEPLDGGVKVEIYWPDGQRQEHLIPPGEPIKIDPNGWYIEISAGGSAGGS [r12_281_TrROS]	0.5 kcal/mol
SAGGGNKPKIKVLLFFPDRVVELEFESPEEFIRALEEAGFPVIPVSEDSKYLVIEFPDGLRALADFSSAGGS [r8_365_TrMRF]	2.44 kcal/mol
SAGGSAGGSAGMAEKLPSLSLFYLPETGDLVLIREETYVDPNDPDKSIVKQEIYVLPPEYSAGGSAGGSAGG [r17_241_TrMRF]	0.984 kcal/mol

Okay, next one:
// query folding stability dG unfold value for entry SAGMVRIERDGDELLIEFEFPEDEPEAVRALIEAIESLGLEVVEAEIEAEPGEGDLRRVRLRFKIKPLESAG [r5_739_TrMRF]
3.95 kcal/mol

----------
Test: folding stability dG unfold from trypsin proteolysis; higher = more stable
RESULT TYPE: folding stability dG unfold (kJ/mol)
One number for each entry, in kJ/mol.

ORDERED RESIDUES	QUANTITATIVE RESULT
SAGGSAGGGLSASDTVTFPDGTVVTVAPDATVTITVPAPPDAAGNLTSTVTRTVTVAPGTRVLLSAGGSAGG [r6_90_JUSTAS]	-3.8
SAGGKKTFKVTLTLELKVERDEETGELKTETLTLTLTIEAESEEEAEKALKELLEKLELSPELKKALSAGGS [r16_40_TrROS_Hall]	9.09

For every item in the list below, what is its measured folding stability dG unfold?
1. SAGGSAGGSAGIITIWFPPDEEFRDFIENLPGPIEDVNIEPRNPGWIKVTLTMRMPPDQVSAGGSAGGSAGG [r11_143_TrROS]
2. SAGGSSSTPVSSSTFTTPDGVTVSVTTTLEPDASGNPYTVTTETFPDGTVTTTTYRNGETQTTTVASAGGSA [r2_182_JUSTAS]
3. SAGGMPKYFAEVDTEPHGDKVKITLRIRDPNGVERELTFELPLSEVIKLLKELPEEFEVFELKFSDESAGGS [r16_298_TrMRF]
4. SKAEIVEIKIEKVEKDGKKYYKVKIKVKTKDGKIKEIEITFPEGMSEEEIKKKIEELAKELGIEKVEIKPSA [r9_1203_TrROS_Hall]
5. SMTPEEARALAEAIAAERAAAGYATEMELTVTPVNGVPVATFRFRFTDAAGRATEFTVTVAPDGTVTFTPSA [r9_1027_JUSTAS]
6. SAGGSAGGSAGMVITLPNGEKVEITFDKENKKITITFPDGKKVEIEIEGMSLEEILKALKSAGGSAGGSAGG [r11_729_TrROS_Hall]

1: 2.94; 2: 5.35; 3: 8.56; 4: 15.7; 5: 14; 6: 16.1

Hi there! I need folding stability dG unfold for each item below, if you can.
1. SAGEFKIDILPGDNVARITSPEGSFLAPFTATFTFDVPDIADPNKIKPKPVVFNLVIEMKLDDFFDLLSSAG [r5_234_TrMRF]
2. SAGGMESTSIPLEFKFEGDEEKAKKKVEEEAKKIAEEKGIEIKIEVKFDPNKPTATVTILVKGKEVEESAGG [r13_845_JUSTAS]
3. SAGGSAGGKIKVEIEYNGEKKEMTLDEIKALLKKNLPPNATIRVKKNGKTIPLKKVKVKKLKKKSAGGSAGG [r6_936_TrROS_Hall]

1: 10.4; 2: -1.72; 3: 4.53

Values were extracted from the supplement of paper PMC12764529.
